System: α-D-glucosidase (Bacillus)
Assay: Glycosidase inhibition, Table 7
Format: biochemical
Conditions: 1 mg/mL aqueous solution added, 27 °C, run in water
valueType: α-D-Glucosidase Bacillus, percentage inhibition (%)
API: value field is a number in %; no unit string.

Dear colleague, I am looking for the recorded α-D-Glucosidase Bacillus, percentage inhibition of the following compound: CC1(C)O[C@H]2O[C@H]3[C@@H]([C@H]2O1)N(Cc1ccccc1)C[C@H]3O [Compound 3]
−43.2

Dear colleague, I am looking for the recorded α-D-Glucosidase Bacillus, percentage inhibition of the following compound: OC1O[C@@H]2[C@H]([C@H]1O)N(Cc1ccccc1)C[C@H]2O (stereo partly shown) [Compound 4]
−37.9

Dear colleague, I am looking for the recorded α-D-Glucosidase Bacillus, percentage inhibition of the following compound: N[C@@H](Cc1ccc(B(O)O)cc1)C(=O)O [BPA, 4-borono-L-phenylalanine, reference compound]
19.9

Dear colleague, I am looking for the recorded α-D-Glucosidase Bacillus, percentage inhibition of the following compound: N[C@@H](Cc1ccc(B(O)O)cc1)C(=O)O [^10B-BPA, reference compound]
19.5
